Recorded values, source the supplement of paper PMC10567573.

B1: FBXO34 (parent)
chain: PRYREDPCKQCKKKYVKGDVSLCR

- Variants of: B1
- ASSAY_DETAILS: protein stability index of a GFP-peptide fusion (GPS, HEK-293T) (PSI 1-6); higher = more stable;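 further: lentivirally expressed fusions sorted by FACS into six bins by GFP to DsRed ratio, PSI derived from sequencing read proportions per bin multiplied by bin number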
- ASSAY_SETUP: c terminus: a fixed tail appended
MEASUREMENT_TYPE: protein stability index

Requested read-out: protein stability index. Entry: PRYREDPCKQCEKKYVKGDVSLCR [K12E]
2.86

Next up: PRYREDPCKQCKKKWVKGDVSLCR [Y15W]
2.79

Next up: PRYDEDPCKQCKKKYVKGDVSLCR [R4D]
3.17

Next up: PRYRENPCKQCKKKYVKGDVSLCR [D6N]
1.92

Next up: PRYREDPCKQCKKKYVKGDVHLCR [S21H]
3.53

Next up: PRYRTDPCKQCKKKYVKGDVSLCR [E5T]
2.67

Next up: MRYREDPCKQCKKKYVKGDVSLCR [P1M]
2.75

Next up: PRYREDPCKQCKPKYVKGDVSLCR [K13P]
1.68

Next up: PRYREDVCKQCKKKYVKGDVSLCR [P7V]
2.19

Next up: PRYREDPCKQQKKKYVKGDVSLCR [C11Q]
3.75

Next up: PRYREDPCKQCYKKYVKGDVSLCR [K12Y]
2.46

Next up: PRYREDPCKQCKKKPVKGDVSLCR [Y15P]
2.98

Next up: PRYREDPCKQCKKKYVKGDVSQCR [L22Q]
2.32

Next up: PRYREDPCKTCKKKYVKGDVSLCR [Q10T]
2.78

Next up: PRYREDPCKQCKKKYVKGDVVLCR [S21V]
3.13

Next up: PRYREDPCKQCKKKEVKGDVSLCR [Y15E]
3.12

Next up: PRYRFDPCKQCKKKYVKGDVSLCR [E5F]
2.57

Next up: PRYPEDPCKQCKKKYVKGDVSLCR [R4P]
2.72

Next up: PRYREDPCKQCKKKYVKGDVSSCR [L22S]
3.29

Next up: PRYREDPCKMCKKKYVKGDVSLCR [Q10M]
2.09

Next up: PRYREDPCKQCKKKYVKTDVSLCR [G18T]
2.5

Next up: PRYREDPCKQCKKKYVKGDVSLCY [R24Y]
2.87
